Source: patent US20210009668A1

MEASURED TARGET: T1, recombinant human cardiac troponin T (human, UniProt P45379 2-298)
T1 construct: In the ECL assay the cTnT came from the Troponin T hs CalSet calibrator; also called cTnT; TnT
EXPERIMENT NOTES: SPR (Biacore T200, 37 C), Fab captured, cTnT analyte
TEST READOUT: kon (M⁻¹ s⁻¹)
Answer format: numeric, M⁻¹ s⁻¹ implied, no suffix.

Which value of kon has been reported for anti-cTnT Fab mutant 15 (Y34I, Y104F) (Fab, V domains shown, also called combination 15) VH: EVQLQQSGPELVKPGASVKMSCKASGYTFTDYIMKWVKQSHGKSLEWIGDINPNNGETFYNQKFKDKATLTVDKSSSTAYMQLNSLTSEDSAVYYCATRVFDFWGQGTTLTVSS VL: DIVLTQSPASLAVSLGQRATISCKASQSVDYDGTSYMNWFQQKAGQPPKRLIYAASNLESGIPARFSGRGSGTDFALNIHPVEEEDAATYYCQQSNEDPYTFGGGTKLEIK in the records?
2.2e+06

Recorded kon for anti-cTnT Fab mutant 9 (Y34I) (Fab, V domains shown, also called combination 9) VH: EVQLQQSGPELVKPGASVKMSCKASGYTFTDYIMKWVKQSHGKSLEWIGDINPNNGETFYNQKFKDKATLTVDKSSSTAYMQLNSLTSEDSAVYYCATRVFDYWGQGTTLTVSS VL: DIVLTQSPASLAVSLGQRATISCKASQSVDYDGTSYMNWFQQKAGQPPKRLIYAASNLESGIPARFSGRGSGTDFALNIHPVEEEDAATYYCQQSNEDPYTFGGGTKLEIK , please?
2e+06

Sample anti-cTnT Fab mutant 5 (Y34F, F60W, V101Y + Y104F) (Fab, V domains shown, also called combination 5) VH: EVQLQQSGPELVKPGASVKMSCKASGYTFTDYFMKWVKQSHGKSLEWIGDINPNNGETWYNQKFKDKATLTVDKSSSTAYMQLNSLTSEDSAVYYCATRYFDFWGQGTTLTVSS VL: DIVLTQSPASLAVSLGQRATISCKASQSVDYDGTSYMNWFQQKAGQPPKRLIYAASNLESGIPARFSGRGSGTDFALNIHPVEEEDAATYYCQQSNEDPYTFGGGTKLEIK — what was its kon?
2.4e+06

# lookup: kon of anti-cTnT Fab mutant 11 (Y34I, F60W, V101Y) (Fab, V domains shown, also called combination 11) VH: EVQLQQSGPELVKPGASVKMSCKASGYTFTDYIMKWVKQSHGKSLEWIGDINPNNGETWYNQKFKDKATLTVDKSSSTAYMQLNSLTSEDSAVYYCATRYFDYWGQGTTLTVSS VL: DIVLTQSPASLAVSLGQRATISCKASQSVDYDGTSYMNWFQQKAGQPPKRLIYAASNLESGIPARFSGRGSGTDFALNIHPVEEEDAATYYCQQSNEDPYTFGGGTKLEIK
2.2e+06
